Each entry below carries its reported TGI.
System: NCI-H522 lung
Test: NCI tumour cell line growth inhibition, 48 h

| molecule | TGI |
| --- | --- |
| C=C1CCC2CC1[C@@H](C(=O)c1c[nH]c3ccccc13)NC2(C)C (stereo not given in full) | > 37.5 µM |
| O=C(Cn1cc(F)c(=O)[nH]c1=O)C12CC3CC(CC(C3)C1)C2 | > 100 µM |
| COC(=O)[C@@H](O)[C@]1(C(=O)OC)C2O[C@@H](OC)[C@@H]1CCCCCC[C@H]2O | > 100 µM |
| CS(=O)(=O)c1ccc(-c2cnc(N)c(C(=O)Nc3ccccc3)n2)cc1 | > 100 µM |
| COc1cc2c3c(n(CCCNCC(OC)OC)c(=O)c2cc1OC)-c1cc2c(cc1C3=O)OCO2 | > 100 µM |

* * *

Tested on: HT29 colon
Experiment: NCI tumour cell line growth inhibition, 48 h
Measured TGI accompanies every entry in the list below.

| query smiles | experimental system | TGI |
| --- | --- | --- |
| COc1ccc2oc(=O)cc(C)c2c1 | HT29 colon | > 100 µM |
| O/N=C/c1cc2c(cc1Br)OCO2 | HT29 colon | > 100 µM |
| C/C(=C\c1ccn(-c2ccc(N)c(F)c2)n1)[C@@H]1C[C@@H]2O[C@]2(C)CCC[C@H](C)[C@H](O)[C@@H](C)C(=O)C(C)(C)[C@@H](O)CC(=O)O1 | HT29 colon | > 15.9 µM |

* * *

Test system: UO-31 renal
Assay: NCI tumour cell line growth inhibition, 48 h
// reported TGI for each item listed
measurement name: TGI

| molecule | experimental system | value |
| --- | --- | --- |
| COc1cc(C[C@H]2C(=O)OC[C@@H]2Cc2ccc(OC)c(OC)c2)cc(OC)c1 | UO-31 renal | > 100 µM |
| CCOP(=O)(OCC)/C(C#N)=C/c1ccc(-c2ccc(F)cc2F)o1 | UO-31 renal | 26.3 µM |
| C(=Nc1ccc(-c2cc(-c3ccccc3)nc3ccc4ccccc4c23)cc1)c1ccccc1 | UO-31 renal | 73.1 µM |
| Nc1ccc(C2NC(=O)Cc3c2ccc2ccccc32)cc1 (stereo not given) | UO-31 renal | > 100 µM |
| CCOC(=O)c1cc(C2CCN(CC(C)CC)C2=S)c(-c2cc(C)no2)[nH]1 (stereo not given) | UO-31 renal | 82.4 µM |
| CC1(C)C2CCC(N)(C2)C1N (stereo not given) | UO-31 renal | > 100 µM |
| COc1cc(C(O)c2nc3ccccc3s2)cc(OC)c1OC (stereo not given) | UO-31 renal | > 100 µM |
| c1cc(CSP234N5CCN2CCN3CCN4CC5)ccc1CSP123N4CCN1CCN2CCN3CC4 | UO-31 renal | > 100 µM |
| Cn1ccc2c(c1=O)C(=O)c1nccc3c1c-2nc1ccccc13 | UO-31 renal | 3.21 µM |
| CCO[C@@H]1CCC(S(=O)c2ccc(C)cc2)=CO1 (stereo not given in full) | UO-31 renal | > 100 µM |
| OCC1OC(Oc2cc(O)cc(/C=C/c3ccc(O)cc3)c2)C(O)C(O)C1O (stereo not given) | UO-31 renal | > 100 µM |
| CCOP1(=O)C=C(Sc2ccc([N+](=O)[O-])cc2[N+](=O)[O-])C(C)(C)O1 (stereo not given) | UO-31 renal | 28.3 µM |
| C/C(=N\NC(=S)NC1CCCC1)c1ccccn1 | UO-31 renal | 22.3 µM |
| c1ccc(-c2ccc(-c3cc4ccccc4[nH]3)cc2)cc1 | UO-31 renal | > 100 µM |
| C#CCOCn1ccc(=O)[nH]c1=O | UO-31 renal | > 100 µM |
| Cc1nn(-c2ccccc2)c2c1CC(=O)Nc1ccccc1-2 | UO-31 renal | > 100 µM |
| C=C1C(=O)OC2C1CC[C@H](C)C13OC(=O)CC1[C@@]23C (stereo not given in full) | UO-31 renal | > 100 µM |
| CCOC(=O)c1sc2nc(SC)nc3c2c1NCN3c1ccc2c(c1)OCCCO2 | UO-31 renal | > 100 µM |
| CC(C)(O)C1CCC(Nc2ccc3ncc(-c4cccc(C(F)(F)F)c4)n3n2)CC1 (stereo not given) | UO-31 renal | 11 µM |
| COc1ccc(N(C)Sc2ccccc2)cc1 | UO-31 renal | > 100 µM |
| OCC(O)C(OC1OC(CO)C(O)C(O)C1O)c1nn(-c2ccccc2)c2nc3cc(Cl)c(Cl)cc3cc12 (stereo not given) | UO-31 renal | > 100 µM |
| CCN(CC)CCC1CCCCN1CC(=O)N1c2ccccc2NC(=O)c2ccccc21 (stereo not given) | UO-31 renal | > 100 µM |
| COc1c(OC)c(N)c2cc(C)c(=O)c(C)cc2c1N | UO-31 renal | > 100 µM |
| C=CCOC1=C(OCC=C)C(C2COC(C)(C)O2)OC1=O (stereo not given) | UO-31 renal | > 100 µM |
| N#C/C(=C1\NN=C(N)C(c2ccc(Cl)cc2)=C1O)c1ccc(Cl)cc1 | UO-31 renal | > 100 µM |

* * *

System: HCC-2998 colon
Assay: NCI tumour cell line growth inhibition, 48 h

| compound | experimental system | TGI |
| --- | --- | --- |
| CC(O)(/C=C/c1ccccc1)P(=O)(O)c1ccccc1 (stereo unspecified) | HCC-2998 colon | > 100 µM |
| C/C(=N\Nc1ccccc1Br)c1cccc(/C(C)=N/Nc2ccccc2Br)n1 | HCC-2998 colon | > 100 µM |
| COc1c(OC)c(N)c2cc(C)c(=O)c(C)cc2c1N | HCC-2998 colon | > 100 µM |
| N#C/C(=C1\NN=C(N)C(c2ccc(Cl)cc2)=C1O)c1ccc(Cl)cc1 | HCC-2998 colon | > 100 µM |
| NC1=NNC2(C(=O)N1)c1ccccc1-c1ccccc12 | HCC-2998 colon | > 10 µM |
| CC(=O)CCC(=O)C(=[N+]=[N-])S(=O)(=O)c1ccccc1 | HCC-2998 colon | > 100 µM |

* * *

System: SNB-75 CNS
Experiment: NCI tumour cell line growth inhibition, 48 h
Quick reference for TGI among some molecules
measurement name: TGI

| molecule | measurement name | value |
| --- | --- | --- |
| COC(=O)C1C2C=CC(C2)C1(C(=O)OC)S(=O)CC12CCC(CC1O)C2(C)C (stereo not drawn) | TGI | > 100 µM |
| C/C(=N\NC(=S)NC1CCCC1)c1ccccn1 | TGI | > 100 µM |
| COC1(O)C(=O)c2ccccc2OC1(OC)c1ccccc1 (stereo not drawn) | TGI | > 100 µM |

* * *

# maps each entry to its TGI
System: SNB-78 CNS
Test: NCI tumour cell line growth inhibition, 48 h
measurement name: TGI

| compound | measurement name | value |
| --- | --- | --- |
| C=CN1C(=O)OC[C@@H]1c1ccccc1 | TGI | > 100 µM |
| CC(=O)Nc1ccc(/C=N\N2C(=O)c3ccccc3C2=O)cc1 | TGI | > 100 µM |
| Cc1ccc(S(=O)(=O)NNC(=O)c2sc(-c3nc(C)c(C(=O)NNS(=O)(=O)c4ccc(C)cc4)s3)nc2C)cc1 | TGI | > 100 µM |
| CCCCCCCCCCC(O)[C@H]1CCC(C2CC[C@H]([C@H](O)CCCCCCCCCCC(O)CC3=CC(C)OC3=O)O2)O1 (stereo not given in full) | TGI | 8.16 µM |
| O=c1c2cc(Br)ccc2nc(-c2ccccc2Cl)n1NCC1(O)OCC(O)C(O)C1O (stereo not given) | TGI | > 100 µM |

* * *

We begin with a simple list: items and their reported TGI.
Tested on: SK-MEL-28 melanoma
Assay: NCI tumour cell line growth inhibition, 48 h

| molecule | experimental system | TGI |
| --- | --- | --- |
| C=CCOC1=C(OCC=C)C(C2COC(C)(C)O2)OC1=O (stereo not drawn) | SK-MEL-28 melanoma | > 100 µM |
| C#CCOCn1ccc(=O)[nH]c1=O | SK-MEL-28 melanoma | > 100 µM |
| c1ccc(-c2cs[s+]c2)cc1 | SK-MEL-28 melanoma | > 100 µM |
| CCN(CCCN(CC)C(=O)Nc1ccccc1)C(=O)Nc1ccccc1 | SK-MEL-28 melanoma | > 100 µM |
| C=C(C)C(=O)OC1CC2=CC(CC3(C)OC3C3OC(=O)C(=C)C13)OC2=O (stereo not drawn) | SK-MEL-28 melanoma | 26.2 µM |
| CCc1cccc2c3c(sc12)C(c1ccc(Cl)cc1)C(C#N)=C(N)O3 (stereo not drawn) | SK-MEL-28 melanoma | 19.3 µM |
| COc1ccc(-c2cc(-c3ccc(Nc4ccnc5cc(Cl)ccc45)cc3)nc(N)c2C#N)cc1 | SK-MEL-28 melanoma | > 100 µM |
| CCCCCCCCCCC(O)[C@H]1CCC(C2CC[C@H]([C@H](O)CCCCCCCCCCC(O)CC3=CC(C)OC3=O)O2)O1 (stereo partly drawn) | SK-MEL-28 melanoma | 7.73 µM |
| COc1cc(C(O)c2nc3ccccc3s2)cc(OC)c1OC (stereo not drawn) | SK-MEL-28 melanoma | > 100 µM |
| O=C(O)CCSCCCN1C(=O)c2ccccc2C1=O | SK-MEL-28 melanoma | > 100 µM |
| Nc1ccc2nc3ccc(N)cc3[n+](-c3ccccc3)c2c1 | SK-MEL-28 melanoma | > 100 µM |
| CC(=O)NCCSC(=O)c1ccccc1 | SK-MEL-28 melanoma | 1.14 µM |
| Cc1ccc(NC(=O)c2cc3ccccc3c(N=Nc3ccccc3O)c2O)c(C)c1 | SK-MEL-28 melanoma | 79.1 µM |
